# key: entry, value: composite z-score
Tested on: Human papillomavirus type 1a protein E7 (residues 44-93)
Assay: small molecules binding HPV E7 44-93 – biochemical, small-molecule microarray, residues 44-93, 635 nm fluorescence, primary screen (AID 1108);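 further: E7 fragment applied at 1 µg/mL in TBST for 1 h at 4 C; score combines spot fluorescence with its signal to noise ratio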
Conditions: fluorescence 635 nm, higher = more signal
Number only, please.

The cases that follow already have their composite z-score on record.
molecule	test result
CC(=O)N1Cc2ccccc2C[C@@]2(N=C(c3ccc(OCCCO)cc3)O[C@H]2c2ccccc2)C1=O	0.671
O=C(NCC(O)CO)[C@@]1(Cc2ccccc2)COC(c2ccc(OCCCO)cc2)=N1 (some centres undefined)	0.422
COC(=O)c1nc2oc1CC[C@@H](CO)NC(=O)N(C)Cc1cn(nn1)C[C@H](Cc1ccccc1)NC2=O	-0.205
CC(C)[Si]1(C(C)C)O[C@@H](c2ccccc2)c2cc(-c3ccc(-c4ccc(Cl)c(Cl)c4)o3)nc(CCc3ccccc3)c21	0.0027
CC1CC/C=C\[C@H]2OC34C=CCN(c5ccc6ccccc6c5)C(=O)[C@H]3N(CCCCCO)C(=O)[C@@H]4C2C(=O)O1 (some centres undefined)	-2.21

Q. composite z-score of Cc1ccc(S[C@]2(C(=O)NCC(C)C)CC(=O)N(Cc3ccccc3)[C@@H]2c2ccc(CO)cc2)cc1 on Human papillomavirus type 1a protein E7 (residues 44-93)?
A. 0.725

Q. composite z-score of COC(=O)C(CC#Cc1ccc2c(c1)[C@]1(C(=O)N2)[C@H](C(=O)N2CCCCCCC2)[C@H]2C(=O)O[C@H](c3ccccc3)[C@H](c3ccccc3)N2[C@@H]1c1ccccc1OCCO)C(=O)OC on Human papillomavirus type 1a protein E7 (residues 44-93)?
A. 1.6

Q. composite z-score of COCC1=C([C@H](O)CCc2ccccc2)[C@H](CO)[C@@H]2C(=O)N(Cc3ccccc3)C(=O)[C@@H]2C1 on Human papillomavirus type 1a protein E7 (residues 44-93)?
A. -0.0325

Q. composite z-score of O=C1C[C@@](C(=O)O)(c2ccc([N+](=O)[O-])cc2)[C@@H](c2ccc(CO)cc2I)N1CC12CC3CC(CC(C3)C1)C2 on Human papillomavirus type 1a protein E7 (residues 44-93)?
A. 0.997

Q. composite z-score of O=C(NCC(F)(F)F)[C@@H]1c2ccccc2C(=O)N(Cc2ccccc2)[C@H]1c1ccc(CO)cc1 on Human papillomavirus type 1a protein E7 (residues 44-93)?
A. 0.337

====

Experiment: compound effects on hepatocellular carcinoma cell viability – HepG2, calcein-AM fluorescence, 48 h, basal, profiling panel (AID 1164); further: test concentration not given here
Settings: higher = more signal
# key: entry, value: z-score
Number only, please.

compound	test result
COc1ccc(C#Cc2ccc3c(c2)[C@]2(C(=O)N3)[C@H](C(=O)N3CCN(c4ncccn4)CC3)[C@H]3C(=O)O[C@H](c4ccccc4)[C@H](c4ccccc4)N3[C@@H]2c2ccc(O)cc2)cc1	0.804
CC(c1ccccc1)C(O)C1C=CC2C(=O)N(Cc3ccccc3)C(=O)C2N1n1cnnc1 (stereo not drawn)	-0.547
CN(C)CCCC[C@@H]1NC(=O)[C@@H]2C[C@H](C(=O)NCCCCCCN)[C@H](c3ccc(O)cc3)N2C1=O	-0.544

Q. Any idea what its z-score is? The compound is COC(=O)c1c(CC[C@@H](CO)NC(=O)Nc2ncn[nH]2)oc(C(=O)Cc2ccccc2)c1C(=O)OC
A. -0.314

Q. Any idea what its z-score is? The compound is C=CCN1C(=O)[C@@]2(O[C@@H](CCO)[C@H]([Si](C)(C)c3ccc(OC)cc3)[C@H]2C)c2cc(N3C(=O)COc4ccccc43)ccc21
A. -4.72
